# System: RAW 264.7 macrophages
# assayMethodText: In vitro cytotoxicity on RAW 264.7 macrophages (resazurin)
# Assay type: cell-based
# testConditions: 48 h of incubation, read-out: Cytotoxicity on RAW 264.7 CC50 (µM) ± S.D.
measuredAttribute: CC50

compound	measuredAttribute	valueMeasured
CCCCCn1c(=O)c2c(c3ccccc31)OC(C)(CCC=C(C)C)C=C2 (stereo not shown) [Compound 15g]	CC50	> 100 µM

###

# Test system: L. infantum axenic amastigotes
# assayMethodText: In vitro antileishmanial evaluation on axenic amastigotes (resazurin viability)
# Type: cell-based, Leishmania infantum
# testConditions: Leishmania infantum, 72 h incubation then resazurin 24 h, triplicate, three independent experiments, read-out: L. infantum Axenic Amastigotes IC50 (µM) ± S.D.
The entries below come with measured IC50 values attached.
measuredAttribute: IC50 (µM)

compound	resultUnit	readingQualifier	valueMeasured
CC1(C)CCCC2(C)Oc3c(c(=O)n(Cc4ccccc4)c4ccccc34)C=C12 (stereo not drawn) [Compound 16a]	µM	=	7
CC1(O)CCC2C(c3c(c4ccccc4[nH]c3=O)OC2(C)C)C1Cl (stereo not drawn)	µM	=	18.6
Cn1c(=O)c2c(c3ccccc31)OC(C)(C)C1CCC(C)(O)C(Cl)C21 (stereo not drawn)	µM	=	8
CC(C)=CCCC1(C)C=Cc2c(c3ccccc3n(S(=O)(=O)c3ccccc3)c2=O)O1 (stereo not drawn) [Compound 15h]	µM	>	100
CCCCCn1c(=O)c2c(c3ccccc31)OC(C)(CCC=C(C)C)C=C2 (stereo not drawn) [Compound 15g]	µM	=	82.7
CC(C)=CCCC1(C)C=Cc2c(c3ccccc3n(C(=O)OC(C)(C)C)c2=O)O1 (stereo not drawn) [Compound 15j]	µM	=	9.1
Cn1c(=O)c2c(c3ccccc31)OC1(C)CCCC(C)(C)C1=C2 (stereo not drawn)	µM	>	100
COC(=O)CCCCn1c(=O)c2c(c3ccccc31)OC(C)(CCC=C(C)C)C=C2 (stereo not drawn) [Compound 15k]	µM	=	14.6
CC(C)=CCCC1(C)C=Cc2c(c3ccccc3[nH]c2=O)O1 (stereo not drawn)	µM	=	15.6
CC(C)=CCCC1(C)C=Cc2c(c3ccccc3n(Cc3ccccc3)c2=O)O1 (stereo not drawn) [Compound 15a]	µM	=	16.8
CC(C)=CCCC1(C)C=Cc2c(c3ccccc3n(Cc3ccccn3)c2=O)O1 (stereo not drawn) [Compound 15c]	µM	=	14.2
COCCn1c(=O)c2c(c3ccccc31)OC(C)(CCC=C(C)C)C=C2 (stereo not drawn) [Compound 15d]	µM	=	17.8
CC(C)=CCCC1(C)C=Cc2c(c3ccccc3n(CCCCC(=O)O)c2=O)O1 (stereo not drawn) [Compound 15l]	µM	=	16.4
CCCCCCCCCCCCCCCCOP(=O)([O-])OCC[N+](C)(C)C [Miltefosine, reference compound]	µM	=	1
CC(C)=CCCC1(C)C=Cc2c(c3ccccc3n(CCc3ccccc3)c2=O)O1 (stereo not drawn) [Compound 15f]	µM	=	9.8
Cn1c(=O)c2c(c3ccccc31)OC1(C)CCC3C1C2C3(C)C (stereo not drawn)	µM	=	42.6
CC(C)=CCCC1(C)C=Cc2c(c3ccccc3n(C(=O)Oc3ccccc3)c2=O)O1 (stereo not drawn) [Compound 15i]	µM	=	12.9
COc1cccc(Cn2c(=O)c3c(c4ccccc42)OC(C)(CCC=C(C)C)C=C3)c1 (stereo not drawn) [Compound 15b]	µM	=	15

###

# Test system: L. infantum intramacrophagic amastigotes
# assayMethodText: In vitro antileishmanial evaluation on intramacrophage amastigotes in RAW264.7 macrophages (Giemsa counting)
# Format: cell-based, Leishmania infantum
# testConditions: Leishmania infantum; infected RAW264.7 macrophages, 48 h of treatment, amastigotes per macrophage counted; read-out: L. infantum Intramacrophagic Amastigotes IC50 (µM) ± S.D.

molecule	IC50
COCCn1c(=O)c2c(c3ccccc31)OC(C)(CCC=C(C)C)C=C2 (stereo not drawn) [Compound 15d]	> 25 µM
Cn1c(=O)c2c(c3ccccc31)OC(C)(C)C1CCC(C)(O)C(Cl)C21 (stereo not drawn)	> 50 µM
CC1(O)CCC2C(c3c(c4ccccc4[nH]c3=O)OC2(C)C)C1Cl (stereo not drawn)	> 6.25 µM
CC(C)=CCCC1(C)C=Cc2c(c3ccccc3n(Cc3ccccc3)c2=O)O1 (stereo not drawn) [Compound 15a]	23.7 µM
COc1cccc(Cn2c(=O)c3c(c4ccccc42)OC(C)(CCC=C(C)C)C=C3)c1 (stereo not drawn) [Compound 15b]	> 25 µM
CC(C)=CCCC1(C)C=Cc2c(c3ccccc3[nH]c2=O)O1 (stereo not drawn)	> 100 µM

###

The entries below come with measured IC50 values attached.
# Test system: L. infantum intramacrophagic amastigotes
# assayMethodText: In vitro antileishmanial evaluation on intramacrophage amastigotes in RAW264.7 macrophages (Giemsa counting)
# Format: cell-based, Leishmania infantum
# testConditions: Leishmania infantum; infected RAW264.7 macrophages, 48 h of treatment, amastigotes per macrophage counted; read-out: L. infantum Intramacrophagic Amastigotes IC50 (µM) ± S.D.

compound	targetOfAssay	IC50
COC(=O)CCCCn1c(=O)c2c(c3ccccc31)OC(C)(CCC=C(C)C)C=C2 (stereo not shown) [Compound 15k]	L. infantum intramacrophagic amastigotes	19 µM
Cn1c(=O)c2c(c3ccccc31)OC1(C)CCC3C1C2C3(C)C (stereo not shown)	L. infantum intramacrophagic amastigotes	> 50 µM
CC(C)=CCCC1(C)C=Cc2c(c3ccccc3n(CCCCC(=O)O)c2=O)O1 (stereo not shown) [Compound 15l]	L. infantum intramacrophagic amastigotes	> 100 µM
CC(C)=CCCC1(C)C=Cc2c(c3ccccc3n(Cc3ccccn3)c2=O)O1 (stereo not shown) [Compound 15c]	L. infantum intramacrophagic amastigotes	> 25 µM

###

# System: L. infantum intramacrophagic amastigotes
# assayMethodText: In vitro antileishmanial evaluation on intramacrophage amastigotes in RAW264.7 macrophages (Giemsa counting)
# Assay type: cell-based, Leishmania infantum
# testConditions: Leishmania infantum; infected RAW264.7 macrophages, 48 h of treatment, amastigotes per macrophage counted; read-out: L. infantum Intramacrophagic Amastigotes IC50 (µM) ± S.D.

compound	IC50
CCCCCn1c(=O)c2c(c3ccccc31)OC(C)(CCC=C(C)C)C=C2 (centres unmarked) [Compound 15g]	29.5 µM
CC(C)=CCCC1(C)C=Cc2c(c3ccccc3n(C(=O)OC(C)(C)C)c2=O)O1 (centres unmarked) [Compound 15j]	> 25 µM
CC1(C)CCCC2(C)Oc3c(c(=O)n(Cc4ccccc4)c4ccccc34)C=C12 (centres unmarked) [Compound 16a]	> 25 µM
CC(C)=CCCC1(C)C=Cc2c(c3ccccc3n(CCc3ccccc3)c2=O)O1 (centres unmarked) [Compound 15f]	> 50 µM
Cn1c(=O)c2c(c3ccccc31)OC1(C)CCCC(C)(C)C1=C2 (centres unmarked)	14.7 µM
CC(C)=CCCC1(C)C=Cc2c(c3ccccc3n(C(=O)Oc3ccccc3)c2=O)O1 (centres unmarked) [Compound 15i]	> 15 µM
CCCCCCCCCCCCCCCCOP(=O)([O-])OCC[N+](C)(C)C [Miltefosine, reference compound]	6.7 µM
CC(C)=CCCC1(C)C=Cc2c(c3ccccc3n(S(=O)(=O)c3ccccc3)c2=O)O1 (centres unmarked) [Compound 15h]	> 100 µM

The reported numbers originate from paper PMC9693141.
